- assay-protocol: NCI Yeast Anticancer Drug Screen. Data for the cln2 rad14 strain (AID 165);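 note: 0% = growth equal to vehicle treated cultures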
- settings: S. cerevisiae cln2 rad14 strain, at 5.0 µM (retest, dose inferred, filed as 0.5), stronger effect = higher value
- Method: Growth inhibition of yeast strains with defined genetic alterations is measured as a screen for potential anti-cancer activity. Selected strains with alterations in DNA damage repair or cell cycle control were exposed to compounds and growth inhibition was measured relative to vehicle treated controls. The strain used in this assay is cln2 rad14
This is part of a sample that, as a whole, favours compounds with a hit. Of some 79,000 tested, about 15% had one in any assay. Active and inactive are the calls of the source. Cut-off read from the data, not from the text of the source: active = growth inhibition above about 70%; inactive = the rest.
growth inhibition listing for selected compounds.

>  <compound>
S=c1nc[nH]c2[nH]ccc12

>  <reported-value>
-2% (inactive)

$$$$
>  <compound>
O=c1cc[nH]cc1

>  <reported-value>
3% (inactive)

$$$$
>  <compound>
Cc1ccc(C23C=CC(c4ccccc4)(C2)C2C(=O)OC(=O)C23)cc1 (centres undefined)

>  <reported-value>
36% (inactive)

$$$$
>  <compound>
Nc1cc(Cl)c(S(=O)(=O)O)cc1Cl

>  <reported-value>
-7% (inactive)

$$$$

For reference, reported growth inhibition for O=C1CSC(=S)N1c1ccc(Cl)c(C(F)(F)F)c1 stands at -4% (inactive)

For reference, reported growth inhibition for COC(=O)C(CC(C)=O)CS(=O)(=O)CC(=O)C(=O)Nc1cccc([N+](=O)[O-])c1 (centres undefined) stands at 3% (inactive)

For reference, reported growth inhibition for O=C(O)c1ccc(C(c2ccccc2)c2ccccc2)cc1 stands at -11% (inactive)

For reference, reported growth inhibition for CC(C)(C)OC(=O)NCCc1cccc2c1oc1c(CCC(=O)O)cccc12 stands at -16% (inactive)
